- target: PPP2R1A (Homo sapiens)
- assay text: gel-based ABPP, competition with IAyne labeling
- Type: binding

>  <molecule>
O=C(CCl)Nc1ccc2c(c1)CCCC2 [JNS 1-37]

>  <unit name>
µM

>  <IC50>
300

$$$$

---

- target: PPP2R1A (Homo sapiens, UniProt P30153)
- Sequence (P30153 2-589): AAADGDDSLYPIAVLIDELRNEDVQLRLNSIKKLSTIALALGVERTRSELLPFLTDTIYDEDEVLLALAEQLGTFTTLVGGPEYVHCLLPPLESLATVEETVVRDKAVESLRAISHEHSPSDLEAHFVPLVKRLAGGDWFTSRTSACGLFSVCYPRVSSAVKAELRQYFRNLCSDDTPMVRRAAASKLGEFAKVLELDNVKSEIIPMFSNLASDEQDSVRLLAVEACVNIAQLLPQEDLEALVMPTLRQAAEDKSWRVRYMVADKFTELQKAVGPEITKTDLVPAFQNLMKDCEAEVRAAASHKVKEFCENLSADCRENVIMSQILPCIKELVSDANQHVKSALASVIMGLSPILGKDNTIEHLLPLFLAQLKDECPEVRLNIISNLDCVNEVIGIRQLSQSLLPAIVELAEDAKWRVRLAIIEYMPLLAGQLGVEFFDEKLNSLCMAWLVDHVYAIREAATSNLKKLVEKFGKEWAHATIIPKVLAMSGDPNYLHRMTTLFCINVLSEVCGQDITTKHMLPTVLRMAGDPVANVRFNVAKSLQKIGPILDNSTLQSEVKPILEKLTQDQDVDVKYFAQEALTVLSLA
- assay text: gel-based ABPP, competition with IAyne labeling of pure protein
- Format: binding

>  <chemical structure>
O=C(CCl)N(Cc1ccccc1)c1ccc2c(c1)OCCO2

>  <target>
PPP2R1A (Homo sapiens, UniProt P30153)

>  <IC50>
630 nM

$$$$
